- System: Prevotella buccae
- Assay notes: Antimicrobial activity against Prevotella buccae under anaerobic conditions after 44 hrs by CLSI-M11-47 protocol based agar dilution method
- Format: functional
- Conditions: Segatella buccae
Quantity: MIC50 (µg/mL)

Compound	Quantity	Value comparator	Recorded measurement
CCC[C@@H]1C[C@@H](C(=O)N[C@@H]([C@H]2O[C@H](SC)[C@H](O)[C@@H](O)[C@H]2O)[C@H](C)Cl)N(C)C1 [CLINDAMYCIN]	MIC50	≤	0.03
Cc1ncc([N+](=O)[O-])n1CCO [METRONIDAZOLE]	MIC50	=	0.5
CCO/N=C(\C(=O)N[C@@H]1C(=O)N2C(C(=O)[O-])=C(Sc3nc(-c4cc[n+](C)cc4)cs3)CS[C@H]12)c1nsc(NP(=O)(O)O)n1 [CEFTAROLINE FOSAMIL]	MIC50	=	0.5
CO/N=C(\C(=O)N[C@@H]1C(=O)N2C(C(=O)O)=C(CSc3nc(=O)c(O)nn3C)CS[C@H]12)c1csc(N)n1 [CEFTRIAXONE]	MIC50	=	0.25

====

- System: Bacteroides thetaiotaomicron
- Assay notes: Antimicrobial activity against Bacteroides thetaiotaomicron under anaerobic conditions after 44 hrs by CLSI-M11-47 protocol based agar dilution method
- Assay type: functional
Item-by-item account of MIC90

Compound	MIC90
CCC[C@@H]1C[C@@H](C(=O)N[C@@H]([C@H]2O[C@H](SC)[C@H](O)[C@@H](O)[C@H]2O)[C@H](C)Cl)N(C)C1 [CLINDAMYCIN]	128 µg/mL
CO/N=C(\C(=O)N[C@@H]1C(=O)N2C(C(=O)O)=C(CSc3nc(=O)c(O)nn3C)CS[C@H]12)c1csc(N)n1 [CEFTRIAXONE]	> 64 µg/mL
Cc1ncc([N+](=O)[O-])n1CCO [METRONIDAZOLE]	1 µg/mL
CCO/N=C(\C(=O)N[C@@H]1C(=O)N2C(C(=O)[O-])=C(Sc3nc(-c4cc[n+](C)cc4)cs3)CS[C@H]12)c1nsc(NP(=O)(O)O)n1 [CEFTAROLINE FOSAMIL]	> 64 µg/mL

====

Item-by-item account of MIC50
- Test system: [Clostridium] innocuum
- Assay notes: Antimicrobial activity against Clostridium […] under anaerobic conditions after 44 hrs by CLSI-M11-47 protocol based agar dilution method
- Format: functional

Compound	Units symbol	MIC50
CCC[C@@H]1C[C@@H](C(=O)N[C@@H]([C@H]2O[C@H](SC)[C@H](O)[C@@H](O)[C@H]2O)[C@H](C)Cl)N(C)C1 [CLINDAMYCIN]	µg/mL	0.5
CCO/N=C(\C(=O)N[C@@H]1C(=O)N2C(C(=O)[O-])=C(Sc3nc(-c4cc[n+](C)cc4)cs3)CS[C@H]12)c1nsc(NP(=O)(O)O)n1 [CEFTAROLINE FOSAMIL]	µg/mL	1
CO/N=C(\C(=O)N[C@@H]1C(=O)N2C(C(=O)O)=C(CSc3nc(=O)c(O)nn3C)CS[C@H]12)c1csc(N)n1 [CEFTRIAXONE]	µg/mL	8
Cc1ncc([N+](=O)[O-])n1CCO [METRONIDAZOLE]	µg/mL	1

====

- System: Paraclostridium bifermentans
- Assay notes: Antimicrobial activity against Clostridium bifermentans under anaerobic conditions after 44 hrs by CLSI-M11-47 protocol based agar dilution method
- Type: functional
Quantity: MIC90 (µg/mL)

Compound	Recorded measurement
CCC[C@@H]1C[C@@H](C(=O)N[C@@H]([C@H]2O[C@H](SC)[C@H](O)[C@@H](O)[C@H]2O)[C@H](C)Cl)N(C)C1 [CLINDAMYCIN]	128
CO/N=C(\C(=O)N[C@@H]1C(=O)N2C(C(=O)O)=C(CSc3nc(=O)c(O)nn3C)CS[C@H]12)c1csc(N)n1 [CEFTRIAXONE]	64
CCO/N=C(\C(=O)N[C@@H]1C(=O)N2C(C(=O)[O-])=C(Sc3nc(-c4cc[n+](C)cc4)cs3)CS[C@H]12)c1nsc(NP(=O)(O)O)n1 [CEFTAROLINE FOSAMIL]	16
Cc1ncc([N+](=O)[O-])n1CCO [METRONIDAZOLE]	4
